Assay: Tmax in Sprague-Dawley rat at 1 mg/kg, iv
Type: ADME, organism-based
Details: in vivo
assayEndpoint: Tmax (min)
One number for each entry, in min.

Challenge: Which Tmax value is on record for C=CC(=O)Nc1cc(Nc2ncc(Cl)c(Nc3ccccc3S(=O)(=O)C(C)C)n2)c(OC)cc1N1CCCN(C)CC1 ?
Response given: 1.02
